meta.source: PubChem BioAssay (NCI)

Test system: NCI/ADR-RES ovarian
Assay: NCI-60 one-dose screen, 48 h (100 = growth as untreated, 0 = no growth, -100 = all killed)
Conditions: 10 µM unless noted
Compounds without any hit were thinned out: in the full panel of roughly 83,000, 20% have a hit.

smiles: Cc1c(CC(=S)N2CCOCC2)nnn1-c1cccc(C(F)(F)F)c1
output unit: %
growth: 105
//
smiles: COc1cccc(/C=N/NC(=O)c2ccccc2N2CCCC2)c1O
output unit: %
growth: 13.6
//
smiles: C=C(CNCCc1ccc(O)cc1)[C@@H]1CC[C@]2(CO)CC[C@]3(C)[C@H](CC[C@@H]4[C@@]5(C)CCC(=O)C(C)(C)[C@@H]5CC[C@]43C)[C@@H]12
output unit: %
growth: 33
//
smiles: C=C1C(=O)O[C@H]2[C@H]1CC/C(COC(=O)/C=C/C(=O)OC/C1=C/CC[C@@]3(C)O[C@H]3[C@H]3OC(=O)C(=C)[C@@H]3CC1)=C\CC[C@@]1(C)O[C@@H]21
output unit: %
growth: 96.5

* * *

Test system: NCI-H322M lung
Experiment: NCI-60 one-dose screen, 48 h
Settings: 10 µM unless noted
About 83,000 compounds went through this panel and 20% of them were active in at least one assay; those are over-represented in the sample as a whole. The source made the active and inactive calls. How the source made its calls: active means growth percent below 10; inactive means the rest.
Possible outcomes: 1 = active, 0 = inactive

compound: CCN1C2CCC1/C(=C\c1ccc(F)cc1)C(=O)/C2=C/c1ccc(F)cc1
label: 0
//
compound: O=C1NC(=O)/C(=C/c2c(-c3ccccc3)nc3sc(COc4ccccc4)nn23)S1
label: 0
//
compound: NC(=O)c1cccc([C@@H]2O[C@H](CO)[C@@H](O)[C@H]2O)c1
label: 0
//
compound: CN(C)CCCNC(=O)c1cncnc1Nc1ccc(OCc2cccc(F)c2)c(Cl)c1
label: 1
//
compound: COC(=O)c1c2c(n3ccccc13)C(=O)c1ccccc1C2=O
label: 0
//
compound: N#Cc1ccc(O)c(C2=NCC(Cc3ccccc3)O2)c1 (centres undefined)
label: 0
//
compound: O=C(CI)NC(=O)NC(=O)NCc1ccccc1
label: 0
//
compound: C=CN(C(=O)N1CCN(c2cc3c(cc2F)c(=O)c(C(=O)O)cn3C2CC2)CC1)c1nc(-c2ccc(OC)cc2)cs1
label: 0
//
compound: CC1(C)CC2=C3C=C[C@@H]4[C@@]5(C)CCC(=O)C(C)(C)[C@@H]5CC[C@@]4(C)[C@]3(C)CC[C@@]2(C(=O)O)C[C@H]1O
label: 0

* * *

Tested on: MDA-MB-231 breast
Assay: NCI-60 one-dose screen, 48 h
Conditions: 10 µM unless noted
Compounds without any hit were thinned out: in the full panel of roughly 83,000, 20% have a hit. Calls of active or inactive are those of the source. How the source made its calls: active means growth percent below 10; inactive means the rest.
Outcomes: active, inactive

molecule: C/C(=N\O)c1ccc(NC(=O)CSc2nnc(-c3cc(-c4ccc(S(N)(=O)=O)cc4)nc4ccccc34)n2-c2ccccc2)cc1
system: MDA-MB-231 breast
label: inactive

molecule: Cc1ccc2nc(-c3ccc(C(=O)NNC(=S)Nc4ccccc4)cc3)[nH]c2c1
system: MDA-MB-231 breast
label: inactive

molecule: CC1(C)N=C(N)N=C(N)N1c1ccc(CCCCc2ccccc2)c(Cl)c1
system: MDA-MB-231 breast
label: inactive

molecule: O=C(CCSc1nnc2n(Cc3ccccc3)c(=O)c3c4c(sc3n12)CCCC4)N1CCN(c2ccccc2)CC1
system: MDA-MB-231 breast
label: inactive

molecule: Cc1c2ccncc2c(C)c2c1c1cc(CO)ccc1n2C
system: MDA-MB-231 breast
label: active

molecule: Cc1c(Cl)cccc1C(=O)Nc1nc2c(s1)CN(C(=O)c1ccc(C(F)(F)F)cc1)CC2
system: MDA-MB-231 breast
label: inactive

molecule: Cc1ccc(NC(=O)Cn2c(Br)nc3c2c(=O)n(C)c(=O)n3C)cc1
system: MDA-MB-231 breast
label: active

molecule: CCN(CC)CCCN1C(=O)c2c(c(C)c3c(oc4ccc(OC)cc43)c2C)C1=O
system: MDA-MB-231 breast
label: inactive

molecule: COc1cc2nc3sc(C(=O)Nc4ccc(C(=O)OC(C)C)cc4)c(C(=O)Nc4ccc(Cl)cc4C)n3c(=O)c2cc1OC
system: MDA-MB-231 breast
label: inactive

molecule: CN(CCCNC(=O)CCOCCOCCOCCNC(=O)Cc1ccc2ccc3cccc4ccc1c2c34)CCCNc1cc(-c2ccc3ccccc3c2)nc2ccccc12
system: MDA-MB-231 breast
label: active

molecule: COc1ccc(C(=S)N2CCN(c3ccc(Cl)cc3)CC2)cc1
system: MDA-MB-231 breast
label: inactive

molecule: CC(=O)OC(c1ccccc1)C1CCOC1=O (stereo not given)
system: MDA-MB-231 breast
label: inactive

molecule: Oc1c(CN2CCC(N3CCCCC3)CC2)cc(Cc2cc(CN3CCC(N4CCCCC4)CC3)c(O)c3ncccc23)c2cccnc12
system: MDA-MB-231 breast
label: inactive

molecule: O=C1C(Nc2ccccn2)=C(I)C(=O)c2ncccc21
system: MDA-MB-231 breast
label: active

molecule: Cc1nc2cc(O)c(O)cc2cc1Oc1ccc(NC(=O)Nc2ccc(Cl)c(Cl)c2)cc1
system: MDA-MB-231 breast
label: inactive

molecule: CC(=O)Oc1ccc(OC(C)=O)c2ccccc12
system: MDA-MB-231 breast
label: active

molecule: COc1ccc(-c2nc(-c3cn(C)c4ncccc34)cs2)cc1
system: MDA-MB-231 breast
label: inactive

molecule: COc1cccc(NCc2nnc(Nc3ccc(Cl)cc3)c3ccccc23)c1
system: MDA-MB-231 breast
label: active

molecule: CC1(C)C(N)=Nc2cc(OCCCN3Cc4ccccc4C3)c(OCC3CC3)cc21
system: MDA-MB-231 breast
label: inactive

molecule: O=C(Cc1ccc(NC(=O)c2cccc(Cl)c2)cc1)NCc1ccccc1
system: MDA-MB-231 breast
label: inactive

* * *

Test system: RPMI-8226 leukemia
Test: NCI-60 one-dose screen, 48 h
Settings: 10 µM unless noted
Protocol: Growth inhibition of the RPMI-8226 human tumor cell line is measured as a screen for anti-cancer activity. Cells are grown in 96 well plates and exposed to the test compound for 48 hours. Compounds are tested at a single concentration, which is 10^-5 M for most compounds. The reported endpoint is percent growth (GI% or GIPRCNT), where numbers from 0 - 100% represent growth inhibition, and numbers from -100% - 0 represent cell death. For example, a value of 40 represents 60% growth inhibition. […]
About 83,000 compounds went through this panel and 20% of them were active in at least one assay; those are over-represented in the sample as a whole. Activity calls are given as the source filed them. Rule for the calls: active = growth percent below 10; inactive = the rest.
Classes used: active, inactive

compound: C=C(CNCCc1ccc(O)cc1)[C@@H]1CC[C@]2(CO)CC[C@]3(C)[C@H](CC[C@@H]4[C@@]5(C)CCC(=O)C(C)(C)[C@@H]5CC[C@]43C)[C@@H]12
label: active

compound: CCN1C(=O)N(CC)C2C1NN=c1s/c(=C\c3ccc(C(F)(F)F)cc3)c(=O)n12 (centres undefined)
label: active

compound: Oc1ccc(/C=C/c2ccc(O)cc2)cc1
label: inactive

compound: CSC(SC)=C(C#N)c1nc2ccccc2s1
label: inactive

compound: C[C@H](CCCC(=O)NCC#CCN1CCN(C)CC1)[C@H]1CC[C@H]2[C@@H]3CC[C@@H]4CC(=O)CC[C@]4(C)[C@H]3CC[C@]12C
label: inactive

compound: O=C(CI)NC(=O)NC(=O)NCc1ccccc1
label: inactive

compound: COc1ccc2c(c1)/C(=N/c1n[nH]c(=S)s1)C(=O)N2
label: inactive

compound: O=C(CN1CCN(c2cc3c(cc2F)c(=O)c(C(=O)O)cn3C2CC2)CC1)N/N=C/c1ccco1
label: inactive

compound: N=C(N)c1ccc(-c2ccc(-c3cc(Cl)cc(Cl)c3)s2)nc1
label: active

* * *

Entries and their growth values follow.
Tested on: NCI-H460 lung
Test: NCI-60 one-dose screen, 48 h (100 = growth as untreated, 0 = no growth, -100 = all killed)
Conditions: 10 µM unless noted
Method: Growth inhibition of the NCI-H460 human Non-Small Cell Lung tumor cell line is measured as a screen for anti-cancer activity. Cells are grown in 96 well plates and exposed to the test compound for 48 hours. Compounds are tested at a single concentration, which is 10^-5 M for most compounds. The reported endpoint is percent growth (GI% or GIPRCNT), where numbers from 0 - 100% represent growth inhibition, and numbers from -100% - 0 represent cell death. […]
This is part of a sample that, as a whole, favours compounds with a hit. Of some 83,000 tested, about 20% had one in any assay.
property: growth (%)

molecule: CN(Cc1ccccc1)c1nc(Cl)c(C2CC(c3ccccc3)=NN2c2ccccc2)s1 (stereo not given)
property: growth
recorded value: 101
//
molecule: O=c1ccc(=O)n(-c2nc(-c3ccc([N+](=O)[O-])cc3)cs2)[nH]1
property: growth
recorded value: 102
//
molecule: NC(=O)c1cccc([C@@H]2O[C@H](CO)[C@@H](O)[C@H]2O)c1
property: growth
recorded value: 103
//
molecule: COc1ccc2cc(-c3ccnc4c(N=Nc5ccc(Cl)cc5)c(N)nn34)ccc2c1
property: growth
recorded value: 100
//
molecule: Cn1cc(-c2csc(-c3c[nH]c4ccc(F)cc34)n2)c2ccnc(Cl)c21
property: growth
recorded value: 36.7
//
molecule: COc1cnc2c(c1)C(=O)c1c-2n(CCCCl)c(=O)c2ccncc12
property: growth
recorded value: 18.6
//
molecule: O=C1/C(=C\c2cccc3nccnc23)SC(=S)N1CCc1ccc(O)cc1
property: growth
recorded value: 105
//
molecule: CCN(CC)CCN1C(=O)c2c(c(C)c3c(oc4ccc(O)cc43)c2C)C1=O
property: growth
recorded value: -45.6
//
molecule: CCN1CCN(CC(=O)Nc2ccc(-c3cn4c(n3)sc3cc(Oc5ccnc(C(=O)NC)c5)ccc34)cc2)CC1
property: growth
recorded value: 48.7
//
molecule: CCCCCCCCCCCCCCCCCCOc1ccccc1CC(=O)NCC[N+]1(C)CCCCC1
property: growth
recorded value: 41.9
//
molecule: O=C(O)/C=C/C(=O)Nc1cccc(Cn2nnc3cc(Cl)c(Cl)cc32)c1
property: growth
recorded value: 105
//
molecule: COc1ccc(Oc2nc(Nc3ccc(N4CCOCC4)cc3)ncc2NC(=O)Nc2cc(OC)cc(OC)c2)cc1
property: growth
recorded value: -36.5
//
molecule: CN1CCN(c2ccc(NC(=O)c3cncnc3Nc3ccc(OCc4cccc(F)c4)c(Cl)c3)cc2)CC1
property: growth
recorded value: 5.33
//
molecule: COC(=O)N1CC(Oc2ccccn2)C2CC1c1ccccc1O2 (stereo not given)
property: growth
recorded value: 100
//
molecule: COc1ccc(NC(=O)Nc2ccc(OCCCCCC(=O)NO)cc2)cc1
property: growth
recorded value: 96.3
//
molecule: N#Cc1c(-c2ccccc2)nc(SCc2nnc(-c3ccc(Cl)cc3)o2)[nH]c1=O
property: growth
recorded value: 105
//
molecule: Cc1cccc(Oc2ccc(Nc3ncnc4ccc(NC(=O)CN5CCN(C)CC5)cc34)cc2Cl)c1
property: growth
recorded value: 2.18
//
molecule: O=C(O)[C@@H](Cc1ccc2ccccc2c1)NC(=O)n1c2ccccc2c2ccccc21
property: growth
recorded value: 9.11
//
molecule: CCN1C(=O)N(CC)C2C1NN=c1s/c(=C\c3ccc[nH]3)c(=O)n12 (stereo not given)
property: growth
recorded value: 4.38
//
molecule: CC(=O)c1sc2sc(C(C)=O)c(C)c2c1C
property: growth
recorded value: 97.9
